// data source = patent US20130251728A1

- study.target: T1, hGCGR-hFc (human)
- T1 construct: also called REGN316
- T1 sequence (chain, as listed by the source limits assumed): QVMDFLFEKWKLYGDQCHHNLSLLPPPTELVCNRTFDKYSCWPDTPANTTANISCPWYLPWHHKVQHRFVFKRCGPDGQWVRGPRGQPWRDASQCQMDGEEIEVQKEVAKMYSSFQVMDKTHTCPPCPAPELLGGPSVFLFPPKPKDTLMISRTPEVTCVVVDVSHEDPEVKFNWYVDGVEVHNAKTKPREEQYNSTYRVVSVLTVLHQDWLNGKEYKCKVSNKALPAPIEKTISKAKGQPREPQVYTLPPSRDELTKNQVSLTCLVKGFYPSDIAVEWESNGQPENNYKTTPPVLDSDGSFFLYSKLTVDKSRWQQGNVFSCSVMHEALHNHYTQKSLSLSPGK
- test: SPR Biacore T100, 25C, mAb captured, antigen flowed
endpoint.label: log10(koff) (log10 of the value in s⁻¹)

{"binder": "H4H1327P (antibody, V domains shown, also called anti-GCGR (hIgG4) antibody designated H4H1327P) VH: EVQLVESGGGLVQPGGSLRLSCAASGFTFSNYLMNWVRQAPGKGLEWLANIQEDGIEKYYVDSVKGRFTISRDNAKNSLYLQMNSLRAEDTAVYYCAREPSHYDILTGYDYYYGMDVWGQGTTVTVS VL: DIQMTQSPSSLSASVGDRVTITCRASQGIRNDLGWYQQKPGKAPKRLIYAASSLQSGVPSRFSGSGSGTEFILTVSSLQPEDFATYYCLQYNSNPFTFGPGTKVDIK", "result.value": -4.39}
{"binder": "H4H1339P (antibody, V domains shown, Fully human anti-GCGR antibody; the controls are called isotype-matched hIgG4) VH: EVQLVESGGGMVQPGGSLRLSCAASGFTSSNYDMHWVRQATGKGLEWVSSIDTAGDTYYPDSVKGRFIISRENAKNSLYLQMNSLRAGDTAVYYCTREPRNYEILTGHYHYHGMDIWGQGTTVTVS VL: AIQMTQSPSSLSASVGDRVTITCRASQAIRNDLGWYQQKPGKAPKLLIYTAFSLQSGVPSRFSGSKSGTDFTLTISSLQPEDFATYYCLQDYTNPRTFGQGTKVEIK", "result.value": -4.21}
{"binder": "H4H1328P (antibody, V domains shown, Fully human anti-GCGR antibody; the controls are called isotype-matched hIgG4) VH: EVQLVESGGALVQPGGSLRLSCTASGFTFSNYDMHWVRQTTGKGLEWISAIDTAGDTYYPGSVKGRFTVSRENAKNSFYLQMNSLRAGDTAVYYCAREGKYYDILTGDYHYYGMDVWGQGTTVTVS VL: DIQMTQSPSSLSASVGDRVTITCRASQGIRNDLGWYQQKPGKAPKRLIYATSSLQSGVPSRFSGSGSGTEFTLTISSLQPEDFATYYCLQHNSYPLTFGGGTKLEIK", "result.value": -3.65}
{"binder": "H4H1321P (antibody, V domains shown, Fully human anti-GCGR antibody; the controls are called isotype-matched hIgG4) VH: QVQLVESGGGVVQPGRSLRLSCAASGFTFSSYDMHWVRQAPGKGLEWVAVISSDGRDKYYVDSVKGRFTISRDNSKNTLYLQMNSLRAEDTAVYYCAKEMVYYDILTGYHNYYGMDVWGQGTTVTVS VL: DIQMTQSPSSLSASVGDRVTITCRASQGINNYLAWFQQKPGKAPKSLIHTASSLQSGVPSKFSGSGSGTDFTLTISSLQPEDFATYYCQQYNTYPLTFGGGTKVEIK", "result.value": -3.55}
{"binder": "H4H1765N (antibody, V domains shown, Anti-GCGR antibody from hybridoma; the controls are called isotype-matched hIgG4) VH: EEQLVESGGDLVQPGGSLRLSCAASGFTLSSYEMNWVRQAPGKGLEWVSYISRGGSLIHYTDSVKGRFTISRDNAKNSLYLQMNSLRAEDTAVYYCVRDPAARYHYYYHGMDVWGQGTTVTVSS VL: DIVMTQSPLSLPVTPGEPASISCRSSQSLLHNNGYNYLDWYLQKPGQSPQLLIYLGSSRASGVPDRFSGSGSGTDFILKISRVEAEDVGVYYCMQALQTPWTFGRGTKVEIK", "result.value": -5.31}
{"binder": "H4H1331P (antibody, V domains shown, Fully human anti-GCGR antibody; the controls are called isotype-matched hIgG4) VH: QVQLVESGGGVVQPGRSLRLSCAASGFTFSNFGMHWVRQAPGKGLEWVAVIWFDEIDKYYADSVKGRFTISRDNSKNTLYPQMNSLRAEDTAVYYCAREDYDILTGYYYAMDVWGQGTTVTVS VL: DIQMTQSPSSLSASVGDRVTITCRASQGIKNDLGWYQQKPGKAPKRLIYAASRLQSGVPSRFSGSGSGTEFTLTISSLQPEDFGTYYCLQHNSHPTFGQGTKVEIK", "result.value": -4.81}
